- MEASUREMENT_PROTOCOL: Apparent permeability in MDCK-II cells
- Type: ADME, cell-based, Canis lupus familiaris
- APPLIED_CONDITIONS: dog
PARAMETER: Papp (×10⁻⁶ cm/s)

Below: 4 molecules and their reported Papp.
{"MOLECULE_SMILES": "C=CC(=O)N1C[C@H](C)N(c2nc(=O)n3c4nc(c(F)cc24)-c2c(F)cc(F)cc2OCC(F)(F)CCc2ccnc(C(C)C)c2-3)C[C@H]1C", "Papp / ×10⁻⁶ cm/s": 31}
{"MOLECULE_SMILES": "C=CC(=O)N1CCN(c2nc(=O)n3c4nc(c(F)cc24)-c2c(F)cccc2OCCCCc2ccnc(C(C)C)c2-3)[C@@H](C)C1", "Papp / ×10⁻⁶ cm/s": 17}
{"MOLECULE_SMILES": "C=CC(=O)N1C[C@H](C)N(c2nc(=O)n3c4nc(c(F)cc24)-c2c(ccc(F)c2F)OCC(F)(F)CCc2ccnc(C(C)C)c2-3)C[C@H]1C", "Papp / ×10⁻⁶ cm/s": 25}
{"MOLECULE_SMILES": "C=CC(=O)N1C[C@H](C)N(c2nc(=O)n3c4nc(c(F)cc24)-c2c(F)cccc2OCCOc2ccnc(C(C)C)c2-3)C[C@H]1C", "Papp / ×10⁻⁶ cm/s": 8}

I: C=CC(=O)N1C[C@H](C)N(c2nc(=O)n3c4nc(c(F)cc24)-c2c(ccc(F)c2F)OCCOc2ccnc(C(C)C)c2-3)C[C@H]1C
II: C=CC(=O)N1C[C@H](C)N(c2nc(=O)n3c4nc(c(C)cc24)-c2c(F)ccc(F)c2OCCOc2ccnc(C(C)C)c2-3)C[C@H]1C
// query So which one has the bigger Papp here, I or II ? # reply format: chosen label
// result II
(II: 13 ×10⁻⁶ cm/s, I: 9 ×10⁻⁶ cm/s)

---

- MEASUREMENT_PROTOCOL: Unbound plasma clearance in male Beagle dog measured up to 24 hrs by LC-MS/MS analysis
- Type: ADME, Canis lupus familiaris
PARAMETER: CL free (mL/min/kg)

Before answering, review these 3 worked examples.
{"MOLECULE_SMILES": "C=CC(=O)N1C[C@H](C)N(c2nc(=O)n3c4nc(c(F)cc24)-c2c(F)ccc(F)c2OCCOc2ccnc(C(C)C)c2-3)C[C@H]1C", "RESULT_UNIT": "mL/min/kg", "CL free": 130}
{"MOLECULE_SMILES": "C=CC(=O)N1C[C@H](C)N(c2nc(=O)n3c4nc(c(Cl)cc24)-c2c(F)ccc(F)c2OCCOc2ccnc(C(C)C)c2-3)C[C@H]1C", "RESULT_UNIT": "mL/min/kg", "CL free": 243}
{"MOLECULE_SMILES": "C=CC(=O)N1C[C@H](C)N(c2nc(=O)n3c4nc(c(F)cc24)-c2c(F)cccc2OCC(F)(F)CCc2ccnc(C(C)C)c2-3)C[C@H]1C", "RESULT_UNIT": "mL/min/kg", "CL free": 160}

1: C=CC(=O)N1C[C@H](C)N(c2nc(=O)n3c4nc(c(F)cc24)-c2c(F)cc(F)cc2OCC(F)(F)CCc2ccnc(C(C)C)c2-3)C[C@H]1C
2: C=CC(=O)N1C[C@H](C)N(c2nc(=O)n3c4nc(c(F)cc24)-c2c(ccc(F)c2F)OCC(F)(F)CCc2ccnc(C(C)C)c2-3)C[C@H]1C
// query Select the item whose CL free value is smaller, choosing between 1 and 2 . // caller expects the label of the chosen entry
// result 2
(2: 128 mL/min/kg, 1: 194 mL/min/kg)
